- Tested on: SF-268 CNS
- assay_method_text: NCI tumour cell line growth inhibition, 48 h
quantity: GI50

Example cases with answers are listed next.
INSERT INTO assay_data (molecule, system_tested, obs_value) VALUES
  ('O=C(O[C@H]1CN[C@H](C#Cc2cc3ncnc(Nc4ccc5c(cnn5Cc5ccccc5)c4)c3s2)C1)N1CCOCC1', 'SF-268 CNS', '4.43 µM'),
  ('COc1ccc2c(c1)OCC1c3cc(O)ccc3OC21 (stereo not given)', 'SF-268 CNS', '11 µM'),
  ('CCOC(=O)C1=C(N)CCC1C (stereo not given)', 'SF-268 CNS', '> 100 µM'),
  ('COc1cc(-c2cc(/C=C/C(=O)c3ccc(N)cc3)[nH]n2)cc(OC)c1OC', 'SF-268 CNS', '1.69 µM'),
  ('O=C(Nc1ccc(Cl)cc1)Nc1ccc(Oc2nncc3ccccc23)cc1', 'SF-268 CNS', '1.35 µM');

Query block: GET GI50 where system = SF-268 CNS and item = O=C(COc1cccc(/C=C2/Oc3ccccc3C2=O)c1)Nc1nccs1
Result block: 6.23 µM

Query block: # assay system SF-268 CNS: give GI50 of CC(C)CCC[C@@H](C)[C@H]1CCC2C3=CCn4c(=O)ccc(=O)n4C3CC[C@@]21C (stereo not given in full)
Result block: 1.46 µM

Query block: Specify GI50 for COc1ccc2c(c1)CCC1C2CCC2(C)C3=CC(O)CCC3CC12 (stereo not given) , system SF-268 CNS.
Result block: 20.3 µM

Query block: Enter GI50 (test system SF-268 CNS) for Cc1cc(C(=O)NC(C)(C)C)cc(C#Cc2ccc3c4c(oc3c2)C(C)(C)c2cc(NS(C)(=O)=O)ccc2C4=O)n1
Result block: 3.34 µM

Query block: GET GI50 where system = SF-268 CNS and item = CCOc1ccc2nc(S/C(=C/C=C(C#N)C#N)c3ccc(Cl)cc3)sc2c1
Result block: 4.63 µM
